Value source: patent US10351575B2

Readings of Avg. POC for the listed molecules
- Target System: EphB3 (Homo sapiens (Human), UniProt P54753)
- Sequence (P54753 34-998): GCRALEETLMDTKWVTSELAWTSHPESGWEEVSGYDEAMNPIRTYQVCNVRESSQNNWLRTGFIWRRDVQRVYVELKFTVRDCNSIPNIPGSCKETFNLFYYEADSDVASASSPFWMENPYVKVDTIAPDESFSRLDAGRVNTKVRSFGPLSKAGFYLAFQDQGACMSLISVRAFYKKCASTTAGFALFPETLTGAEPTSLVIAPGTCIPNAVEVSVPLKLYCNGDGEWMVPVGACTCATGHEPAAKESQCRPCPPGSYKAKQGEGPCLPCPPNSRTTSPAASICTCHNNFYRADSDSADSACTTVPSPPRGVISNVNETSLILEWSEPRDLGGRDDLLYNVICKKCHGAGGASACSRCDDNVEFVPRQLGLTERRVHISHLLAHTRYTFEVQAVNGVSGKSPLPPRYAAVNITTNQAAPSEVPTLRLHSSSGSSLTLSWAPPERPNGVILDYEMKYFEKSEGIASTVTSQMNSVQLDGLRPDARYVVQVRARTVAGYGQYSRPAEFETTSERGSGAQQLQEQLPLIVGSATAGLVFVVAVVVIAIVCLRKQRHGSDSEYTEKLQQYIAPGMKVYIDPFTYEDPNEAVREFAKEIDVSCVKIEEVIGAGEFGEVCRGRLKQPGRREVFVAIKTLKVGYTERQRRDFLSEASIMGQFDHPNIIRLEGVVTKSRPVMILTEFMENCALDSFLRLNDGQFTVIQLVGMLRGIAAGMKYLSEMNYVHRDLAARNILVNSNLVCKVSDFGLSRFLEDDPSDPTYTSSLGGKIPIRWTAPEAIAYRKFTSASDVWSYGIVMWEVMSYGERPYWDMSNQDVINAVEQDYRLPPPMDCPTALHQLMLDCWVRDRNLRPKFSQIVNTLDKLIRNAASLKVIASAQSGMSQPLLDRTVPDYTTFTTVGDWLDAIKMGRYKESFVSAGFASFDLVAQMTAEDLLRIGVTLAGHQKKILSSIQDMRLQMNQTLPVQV
- Experiment Notes: KinaseProfiler off-target kinase profiling
- Type: biochemical
- Reported Conditions: 10 μM, ATP near Km
- Experimental: Representative compounds (Examples 12, 32, 26 and 2) of the invention were tested for off-target kinase activity at a concentration of 10 μM by Millipore, Inc. in their KinaseProfiler™ service against all the kinases available in their full kinase panel. Compounds were run in duplicate at a concentration of ATP near the Km for each individual kinase according to Millipore's specifications. […]
Assay Metric: Avg. POC (POC)

>>> observed_result("COCc1ccc2c(c1)C(NC(=O)Nc1c(C)c(-c3cnn(C)c3)nn1-c1ccccc1)COC2 (stereo not shown)")
87.5
>>> observed_result("Cc1c(-c2ccc(=O)n(C)c2)nn(-c2ccccc2)c1NC(=O)NC1CN(CC(F)(F)F)Cc2ccccc21 (stereo not shown)")
97
>>> observed_result("Cc1c(-c2cnn(C)c2)nn(-c2ccccc2)c1NC(=O)NC1CCOc2cc(F)ccc21 (stereo not shown)")
89
>>> observed_result("Cc1c(-c2cnn(C)c2)nn(-c2ccccc2)c1NC(=O)N[C@H]1CCCc2ccccc21")
110

###

Recorded Avg. POC values for a group of compounds are listed next.
- Target System: UniProtKB Q15759
- Sequence (Q15759 whole entry): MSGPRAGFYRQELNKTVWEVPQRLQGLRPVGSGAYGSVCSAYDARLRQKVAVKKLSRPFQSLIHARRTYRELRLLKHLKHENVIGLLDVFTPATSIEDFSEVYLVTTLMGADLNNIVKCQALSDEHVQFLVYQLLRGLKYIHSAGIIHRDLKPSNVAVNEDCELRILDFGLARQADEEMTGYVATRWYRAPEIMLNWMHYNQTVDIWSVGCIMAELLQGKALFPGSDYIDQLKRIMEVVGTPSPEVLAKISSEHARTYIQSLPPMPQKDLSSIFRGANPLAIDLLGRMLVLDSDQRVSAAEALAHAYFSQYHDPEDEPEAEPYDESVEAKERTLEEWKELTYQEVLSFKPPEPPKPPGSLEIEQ
- Experiment Notes: KinaseProfiler off-target kinase profiling
- Format: biochemical
- Reported Conditions: 10 μM, ATP near Km
- Procedure: Representative compounds (Examples 12, 32, 26 and 2) of the invention were tested for off-target kinase activity at a concentration of 10 μM by Millipore, Inc. in their KinaseProfiler™ service against all the kinases available in their full kinase panel. Compounds were run in duplicate at a concentration of ATP near the Km for each individual kinase according to Millipore's specifications. […]
Assay Metric: Avg. POC (POC)

>>> observed_result("Cc1c(-c2cnn(C)c2)nn(-c2ccccc2)c1NC(=O)NC1CCOc2cc(F)ccc21 (stereo not shown)")
115.5
>>> observed_result("Cc1c(-c2cnn(C)c2)nn(-c2ccccc2)c1NC(=O)N[C@H]1CCCc2ccccc21")
113
>>> observed_result("Cc1c(-c2ccc(=O)n(C)c2)nn(-c2ccccc2)c1NC(=O)NC1CN(CC(F)(F)F)Cc2ccccc21 (stereo not shown)")
115.5
>>> observed_result("COCc1ccc2c(c1)C(NC(=O)Nc1c(C)c(-c3cnn(C)c3)nn1-c1ccccc1)COC2 (stereo not shown)")
119

###

- Target System: UniProt O15264
- Sequence (O15264 whole entry): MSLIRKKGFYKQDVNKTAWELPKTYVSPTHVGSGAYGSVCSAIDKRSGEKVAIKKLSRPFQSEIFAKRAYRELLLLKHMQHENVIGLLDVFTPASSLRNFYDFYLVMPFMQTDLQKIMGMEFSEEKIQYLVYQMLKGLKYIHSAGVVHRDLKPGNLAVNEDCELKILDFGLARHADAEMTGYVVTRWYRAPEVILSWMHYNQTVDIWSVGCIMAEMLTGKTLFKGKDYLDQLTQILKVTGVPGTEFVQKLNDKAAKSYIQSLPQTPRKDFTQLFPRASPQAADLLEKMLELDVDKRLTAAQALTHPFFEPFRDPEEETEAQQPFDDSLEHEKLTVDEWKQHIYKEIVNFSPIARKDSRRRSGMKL
- Experiment Notes: KinaseProfiler off-target kinase profiling
- Assay type: biochemical
- Reported Conditions: 10 μM, ATP near Km
Measured Avg. POC of individual entries
Assay Metric: Avg. POC (POC)

>>> observed_result("Cc1c(-c2cnn(C)c2)nn(-c2ccccc2)c1NC(=O)N[C@H]1CCCc2ccccc21 [Example 2]")
96.5
>>> observed_result("Cc1c(-c2cnn(C)c2)nn(-c2ccccc2)c1NC(=O)NC1CCOc2cc(F)ccc21 (stereo not shown) [Example 12]")
99.5
>>> observed_result("COCc1ccc2c(c1)C(NC(=O)Nc1c(C)c(-c3cnn(C)c3)nn1-c1ccccc1)COC2 (stereo not shown) [Example 32]")
113.5
>>> observed_result("Cc1c(-c2ccc(=O)n(C)c2)nn(-c2ccccc2)c1NC(=O)NC1CN(CC(F)(F)F)Cc2ccccc21 (stereo not shown) [Example 26]")
102

###

Avg. POC by entry:
- Target System: TBK1 (Homo sapiens (Human))
- Sequence (Q9UHD2 whole entry): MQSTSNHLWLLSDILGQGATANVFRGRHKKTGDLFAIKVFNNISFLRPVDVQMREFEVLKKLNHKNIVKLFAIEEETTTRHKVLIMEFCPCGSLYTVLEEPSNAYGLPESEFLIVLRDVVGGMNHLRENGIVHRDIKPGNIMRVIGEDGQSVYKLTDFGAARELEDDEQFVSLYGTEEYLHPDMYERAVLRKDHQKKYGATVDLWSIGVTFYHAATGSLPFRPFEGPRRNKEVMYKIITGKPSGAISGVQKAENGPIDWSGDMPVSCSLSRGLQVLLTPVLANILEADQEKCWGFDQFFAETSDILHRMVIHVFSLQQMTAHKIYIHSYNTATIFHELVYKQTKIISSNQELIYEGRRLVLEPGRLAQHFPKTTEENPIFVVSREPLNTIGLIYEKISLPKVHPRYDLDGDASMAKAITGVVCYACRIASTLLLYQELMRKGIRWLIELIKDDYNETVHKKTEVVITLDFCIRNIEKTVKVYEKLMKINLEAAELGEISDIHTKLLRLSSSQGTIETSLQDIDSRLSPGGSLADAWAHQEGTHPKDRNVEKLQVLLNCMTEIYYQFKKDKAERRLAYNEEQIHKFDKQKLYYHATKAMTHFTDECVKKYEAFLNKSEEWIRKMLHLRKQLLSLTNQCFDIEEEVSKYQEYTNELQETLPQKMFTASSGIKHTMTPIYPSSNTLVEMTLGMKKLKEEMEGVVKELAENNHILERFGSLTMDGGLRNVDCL
- Experiment Notes: KinaseProfiler off-target kinase profiling
- Type: biochemical
- Reported Conditions: 10 μM, ATP near Km
- Protocol: Representative compounds (Examples 12, 32, 26 and 2) of the invention were tested for off-target kinase activity at a concentration of 10 μM by Millipore, Inc. in their KinaseProfiler™ service against all the kinases available in their full kinase panel. Compounds were run in duplicate at a concentration of ATP near the Km for each individual kinase according to Millipore's specifications. […]
Assay Metric: Avg. POC (POC)

>>> observed_result("Cc1c(-c2cnn(C)c2)nn(-c2ccccc2)c1NC(=O)NC1CCOc2cc(F)ccc21 (stereo not shown)")
103
>>> observed_result("Cc1c(-c2ccc(=O)n(C)c2)nn(-c2ccccc2)c1NC(=O)NC1CN(CC(F)(F)F)Cc2ccccc21 (stereo not shown)")
113
>>> observed_result("Cc1c(-c2cnn(C)c2)nn(-c2ccccc2)c1NC(=O)N[C@H]1CCCc2ccccc21")
116
>>> observed_result("COCc1ccc2c(c1)C(NC(=O)Nc1c(C)c(-c3cnn(C)c3)nn1-c1ccccc1)COC2 (stereo not shown)")
108.5

###

- Target System: TrkB (Homo sapiens (Human), UniProt Q16620)
- Experiment Notes: KinaseProfiler off-target kinase profiling
- Assay type: biochemical
- Reported Conditions: 10 μM, ATP near Km
Readings of Avg. POC for the listed compounds
Assay Metric: Avg. POC

>>> observed_result("Cc1c(-c2cnn(C)c2)nn(-c2ccccc2)c1NC(=O)N[C@H]1CCCc2ccccc21")
"−2 POC"
>>> observed_result("Cc1c(-c2ccc(=O)n(C)c2)nn(-c2ccccc2)c1NC(=O)NC1CN(CC(F)(F)F)Cc2ccccc21 (stereo not shown)")
"1.5 POC"
>>> observed_result("COCc1ccc2c(c1)C(NC(=O)Nc1c(C)c(-c3cnn(C)c3)nn1-c1ccccc1)COC2 (stereo not shown)")
"−0.5 POC"
>>> observed_result("Cc1c(-c2cnn(C)c2)nn(-c2ccccc2)c1NC(=O)NC1CCOc2cc(F)ccc21 (stereo not shown)")
"1 POC"

###

The entries below are paired with their reported Avg. POC.
- Target System: CAMK2g (Homo sapiens (Human), UniProt Q13555)
- Experiment Notes: KinaseProfiler off-target kinase profiling
- Assay type: biochemical
- Reported Conditions: 10 μM, ATP near Km
Assay Metric: Avg. POC (POC)

>>> observed_result("Cc1c(-c2ccc(=O)n(C)c2)nn(-c2ccccc2)c1NC(=O)NC1CN(CC(F)(F)F)Cc2ccccc21 (stereo not shown) [Example 26]")
101
>>> observed_result("COCc1ccc2c(c1)C(NC(=O)Nc1c(C)c(-c3cnn(C)c3)nn1-c1ccccc1)COC2 (stereo not shown) [Example 32]")
105
>>> observed_result("Cc1c(-c2cnn(C)c2)nn(-c2ccccc2)c1NC(=O)N[C@H]1CCCc2ccccc21 [Example 2]")
107.5
>>> observed_result("Cc1c(-c2cnn(C)c2)nn(-c2ccccc2)c1NC(=O)NC1CCOc2cc(F)ccc21 (stereo not shown) [Example 12]")
107.5

###

- Target System: CLK3 (Homo sapiens (Human))
- Sequence (P49761 whole entry): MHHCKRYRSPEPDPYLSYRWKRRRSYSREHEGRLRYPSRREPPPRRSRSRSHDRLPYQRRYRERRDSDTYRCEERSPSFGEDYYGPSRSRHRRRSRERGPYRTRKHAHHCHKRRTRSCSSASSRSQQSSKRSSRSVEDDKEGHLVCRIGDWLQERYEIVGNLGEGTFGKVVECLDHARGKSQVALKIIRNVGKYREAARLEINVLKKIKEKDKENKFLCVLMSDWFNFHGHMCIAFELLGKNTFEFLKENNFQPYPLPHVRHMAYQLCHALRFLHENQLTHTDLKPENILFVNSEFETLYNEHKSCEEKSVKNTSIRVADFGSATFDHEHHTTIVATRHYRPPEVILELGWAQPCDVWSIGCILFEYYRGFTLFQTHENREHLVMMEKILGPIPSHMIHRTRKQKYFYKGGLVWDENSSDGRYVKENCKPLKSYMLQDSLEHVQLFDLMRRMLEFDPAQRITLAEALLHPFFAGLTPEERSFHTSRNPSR
- Experiment Notes: KinaseProfiler off-target kinase profiling
- Type: biochemical
- Reported Conditions: 10 μM, ATP near Km
- Protocol: Representative compounds (Examples 12, 32, 26 and 2) of the invention were tested for off-target kinase activity at a concentration of 10 μM by Millipore, Inc. in their KinaseProfiler™ service against all the kinases available in their full kinase panel. Compounds were run in duplicate at a concentration of ATP near the Km for each individual kinase according to Millipore's specifications. […]
Reported Avg. POC values are given for each entry in this list.
Assay Metric: Avg. POC (POC)

>>> observed_result("Cc1c(-c2cnn(C)c2)nn(-c2ccccc2)c1NC(=O)N[C@H]1CCCc2ccccc21")
108
>>> observed_result("COCc1ccc2c(c1)C(NC(=O)Nc1c(C)c(-c3cnn(C)c3)nn1-c1ccccc1)COC2 (stereo not shown)")
109
>>> observed_result("Cc1c(-c2ccc(=O)n(C)c2)nn(-c2ccccc2)c1NC(=O)NC1CN(CC(F)(F)F)Cc2ccccc21 (stereo not shown)")
106
>>> observed_result("Cc1c(-c2cnn(C)c2)nn(-c2ccccc2)c1NC(=O)NC1CCOc2cc(F)ccc21 (stereo not shown)")
100

###

- Target System: ZAP-70 (Homo sapiens (Human), UniProt P43403)
- Sequence (P43403 whole entry): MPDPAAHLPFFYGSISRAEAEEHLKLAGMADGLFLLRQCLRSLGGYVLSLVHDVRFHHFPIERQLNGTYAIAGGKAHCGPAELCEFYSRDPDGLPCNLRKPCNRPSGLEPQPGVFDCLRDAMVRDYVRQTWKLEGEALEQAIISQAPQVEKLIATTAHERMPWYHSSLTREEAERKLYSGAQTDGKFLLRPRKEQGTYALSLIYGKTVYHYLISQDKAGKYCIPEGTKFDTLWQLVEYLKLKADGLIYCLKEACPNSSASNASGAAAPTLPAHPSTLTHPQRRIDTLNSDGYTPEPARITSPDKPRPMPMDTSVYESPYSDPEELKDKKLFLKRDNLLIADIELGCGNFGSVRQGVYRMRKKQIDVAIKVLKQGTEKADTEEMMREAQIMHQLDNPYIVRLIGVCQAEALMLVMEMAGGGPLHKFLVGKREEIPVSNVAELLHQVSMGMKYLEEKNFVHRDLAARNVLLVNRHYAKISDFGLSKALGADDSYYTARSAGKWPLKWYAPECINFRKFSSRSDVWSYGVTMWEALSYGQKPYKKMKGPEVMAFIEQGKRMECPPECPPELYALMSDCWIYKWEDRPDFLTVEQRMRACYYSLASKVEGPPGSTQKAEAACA
- Experiment Notes: KinaseProfiler off-target kinase profiling
- Format: biochemical
- Reported Conditions: 10 μM, ATP near Km
Assay Metric: Avg. POC (POC)

>>> observed_result("Cc1c(-c2cnn(C)c2)nn(-c2ccccc2)c1NC(=O)NC1CCOc2cc(F)ccc21 (stereo not shown)")
140
>>> observed_result("Cc1c(-c2ccc(=O)n(C)c2)nn(-c2ccccc2)c1NC(=O)NC1CN(CC(F)(F)F)Cc2ccccc21 (stereo not shown)")
120.5
>>> observed_result("Cc1c(-c2cnn(C)c2)nn(-c2ccccc2)c1NC(=O)N[C@H]1CCCc2ccccc21")
124
>>> observed_result("COCc1ccc2c(c1)C(NC(=O)Nc1c(C)c(-c3cnn(C)c3)nn1-c1ccccc1)COC2 (stereo not shown)")
124

###

Avg. POC overview
- Target System: mTOR/FKBP12 (Homo sapiens (Human))
- Sequence (P42345 1362-2549): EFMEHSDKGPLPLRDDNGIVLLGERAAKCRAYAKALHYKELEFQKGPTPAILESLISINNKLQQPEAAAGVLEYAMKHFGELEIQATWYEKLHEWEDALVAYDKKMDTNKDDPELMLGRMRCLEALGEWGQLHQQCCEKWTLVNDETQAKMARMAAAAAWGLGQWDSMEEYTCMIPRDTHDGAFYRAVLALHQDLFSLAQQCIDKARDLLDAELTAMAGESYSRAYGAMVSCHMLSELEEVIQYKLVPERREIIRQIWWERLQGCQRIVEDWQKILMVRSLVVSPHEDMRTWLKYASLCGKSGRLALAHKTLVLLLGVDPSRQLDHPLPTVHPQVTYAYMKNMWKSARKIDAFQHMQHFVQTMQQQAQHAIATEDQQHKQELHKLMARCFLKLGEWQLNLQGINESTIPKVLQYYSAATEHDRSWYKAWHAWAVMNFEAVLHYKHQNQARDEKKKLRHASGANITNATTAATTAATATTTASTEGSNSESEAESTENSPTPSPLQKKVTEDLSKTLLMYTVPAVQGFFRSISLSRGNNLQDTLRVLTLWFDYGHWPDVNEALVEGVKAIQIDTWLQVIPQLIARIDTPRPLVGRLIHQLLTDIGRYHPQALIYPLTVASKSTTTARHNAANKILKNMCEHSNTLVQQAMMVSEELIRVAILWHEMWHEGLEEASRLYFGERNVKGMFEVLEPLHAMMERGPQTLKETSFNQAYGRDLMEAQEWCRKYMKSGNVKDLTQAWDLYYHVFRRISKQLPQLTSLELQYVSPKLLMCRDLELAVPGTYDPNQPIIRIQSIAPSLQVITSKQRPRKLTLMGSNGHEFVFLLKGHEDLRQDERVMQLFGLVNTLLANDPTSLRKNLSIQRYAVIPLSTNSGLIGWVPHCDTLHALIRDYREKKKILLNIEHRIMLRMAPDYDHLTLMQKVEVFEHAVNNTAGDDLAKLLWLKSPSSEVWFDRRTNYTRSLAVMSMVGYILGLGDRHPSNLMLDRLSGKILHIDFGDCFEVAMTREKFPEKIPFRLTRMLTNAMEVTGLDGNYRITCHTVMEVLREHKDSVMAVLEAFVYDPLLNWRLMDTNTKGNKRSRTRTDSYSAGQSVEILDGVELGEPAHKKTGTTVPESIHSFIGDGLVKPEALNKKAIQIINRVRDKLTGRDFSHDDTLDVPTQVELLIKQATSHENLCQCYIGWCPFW
- Experiment Notes: KinaseProfiler off-target kinase profiling
- Format: biochemical
- Reported Conditions: 10 μM, ATP near Km
- Procedure: Representative compounds (Examples 12, 32, 26 and 2) of the invention were tested for off-target kinase activity at a concentration of 10 μM by Millipore, Inc. in their KinaseProfiler™ service against all the kinases available in their full kinase panel. Compounds were run in duplicate at a concentration of ATP near the Km for each individual kinase according to Millipore's specifications. […]
Assay Metric: Avg. POC (POC)

>>> observed_result("Cc1c(-c2ccc(=O)n(C)c2)nn(-c2ccccc2)c1NC(=O)NC1CN(CC(F)(F)F)Cc2ccccc21 (stereo not shown)")
107.5
>>> observed_result("Cc1c(-c2cnn(C)c2)nn(-c2ccccc2)c1NC(=O)N[C@H]1CCCc2ccccc21")
105
>>> observed_result("Cc1c(-c2cnn(C)c2)nn(-c2ccccc2)c1NC(=O)NC1CCOc2cc(F)ccc21 (stereo not shown)")
105.5
>>> observed_result("COCc1ccc2c(c1)C(NC(=O)Nc1c(C)c(-c3cnn(C)c3)nn1-c1ccccc1)COC2 (stereo not shown)")
113.5
